target_of_assay: HIPK2 (human) (UniProt Q9H2X6)
Sequence (Q9H2X6 whole entry, looked up): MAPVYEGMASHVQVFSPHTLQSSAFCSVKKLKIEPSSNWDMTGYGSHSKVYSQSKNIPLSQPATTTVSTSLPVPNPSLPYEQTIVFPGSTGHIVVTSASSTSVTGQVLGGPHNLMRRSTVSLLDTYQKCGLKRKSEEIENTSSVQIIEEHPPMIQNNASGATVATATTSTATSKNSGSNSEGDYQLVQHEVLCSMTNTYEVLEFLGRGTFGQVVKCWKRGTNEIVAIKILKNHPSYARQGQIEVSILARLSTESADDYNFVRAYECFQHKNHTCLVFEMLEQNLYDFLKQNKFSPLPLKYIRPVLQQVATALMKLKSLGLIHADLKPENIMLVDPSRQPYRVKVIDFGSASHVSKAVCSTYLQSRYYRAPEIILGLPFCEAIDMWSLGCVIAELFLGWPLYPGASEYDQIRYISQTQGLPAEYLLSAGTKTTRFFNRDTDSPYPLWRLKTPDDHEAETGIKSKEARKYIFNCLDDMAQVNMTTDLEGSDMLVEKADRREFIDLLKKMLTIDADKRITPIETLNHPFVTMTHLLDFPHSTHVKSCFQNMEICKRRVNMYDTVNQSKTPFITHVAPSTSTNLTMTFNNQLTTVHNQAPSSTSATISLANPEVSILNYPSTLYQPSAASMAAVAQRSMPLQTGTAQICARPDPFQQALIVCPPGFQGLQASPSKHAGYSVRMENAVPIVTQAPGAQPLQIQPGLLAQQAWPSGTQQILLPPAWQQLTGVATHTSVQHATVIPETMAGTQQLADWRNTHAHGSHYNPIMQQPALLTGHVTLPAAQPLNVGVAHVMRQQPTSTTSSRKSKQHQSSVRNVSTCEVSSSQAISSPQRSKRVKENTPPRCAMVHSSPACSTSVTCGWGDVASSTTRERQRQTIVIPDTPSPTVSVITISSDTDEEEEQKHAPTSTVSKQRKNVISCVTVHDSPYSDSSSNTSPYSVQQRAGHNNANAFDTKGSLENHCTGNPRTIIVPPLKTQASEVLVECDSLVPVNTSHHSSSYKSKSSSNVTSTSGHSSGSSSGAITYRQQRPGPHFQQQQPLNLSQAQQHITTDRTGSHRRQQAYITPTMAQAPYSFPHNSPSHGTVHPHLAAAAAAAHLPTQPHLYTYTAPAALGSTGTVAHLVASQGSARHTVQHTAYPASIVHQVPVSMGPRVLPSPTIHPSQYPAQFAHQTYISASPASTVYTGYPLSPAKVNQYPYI
experimental_protocol: radiometric filter-binding kinase assay
measurement_setup: compound 0.1 µM
readout_kind: residual activity (%)

Use the examples below as a reference point.
                                   compound                 target_of_assay  output_unit  reported_measurement
0  Cc1cc(NC(=O)c2cccc(NC(=O)/C=C/CN(C)C)c2)ccc1Nc1nccc(-c2cccnc2)n1  HIPK2 (human) (UniProt Q9H2X6)            %                    92
1  NC(=O)Nc1ccc2c(c1)/C(=C/c1cc(-c3cccnc3)c[nH]1)C(=O)N2  HIPK2 (human) (UniProt Q9H2X6)            %                    33

I: Cn1c(=O)c2c(ncn2C)n(C)c1=O
II: COc1ccc(-n2ncc3cnc(Nc4cc(OC)c(OC)c(OCCCN5CCN(C)CC5)c4)nc32)cc1
III: C/C(=C1/C(=O)Nc2ccc(NC(N)=O)cc21)c1ccc[nH]1
Order the items by recorded residual activity; the first position goes to the largest value. Your task in answering is to list the labels in the requested order.
I, III, II

* * *

target_of_assay: JAK2 JH1 JH2 (human)
experimental_protocol: radiometric filter-binding kinase assay
measurement_setup: compound 0.1 µM
readout_kind: residual activity (%)

                                   compound  reported_measurement
0  COc1cc(O)c2c(c1)/C=C/C[C@H](O)[C@H](O)C(=O)/C=C\C[C@H](C)OC2=O                   108
1  Cc1ccc(Sc2cnc(Nc3cccc(Br)n3)s2)cc1C(=O)N1CCN(C(=O)CN)CC1                    84
2  Cc1cc(NC(=O)c2cccc(NC(=O)/C=C/CN(C)C)c2)ccc1Nc1nccc(-c2cccnc2)n1                   100
3  COc1ccc(N(C(=O)Nc2c(C)cccc2C)c2cc(Nc3ccc(N4CCN(C)CC4)cc3)ncn2)c(OC)c1                    88
4  O=C(N[C@@H](COc1ccc2[nH]c(=O)[nH]c2c1)c1ccccc1)c1cccn(Cc2ccc(F)c(F)c2)c1=O                    98

a: CCCCCc1ccc(/C=C/[C@H](O)[C@@H](CO)NC)cc1
b: O=C(O)c1ccc(-c2c[nH]c3ncc(-c4ccccc4)cc23)cc1C1CCCC1
In the pair a and b , the larger recorded residual activity belongs to which? # reply format: chosen label
a
(a: 118%, b: 24%)

* * *

target_of_assay: TTBK2 (human)
experimental_protocol: radiometric filter-binding kinase assay
measurement_setup: compound 10.0 µM
readout_kind: residual activity (%)

compound	output_unit	residual activity
Cc1ccc(-c2ccc3c(ccc4sc5c(c43)NC[C@@H](C)NC5=O)n2)cn1	%	103
Nc1cccc2c1CN(C1CCC(=O)NC1=O)C2=O (stereo not given)	%	101
COc1cc(C(=O)N2CCOCC2)c(F)cc1Nc1ncc(C(F)(F)F)c(NC2CC2)n1	%	97

P: CC1=C(CO)C(=O)O[C@@H]([C@@H](C)[C@H]2CC[C@H]3[C@@H]4C[C@H]5O[C@]56[C@@H](O)C=CC(=O)[C@]6(C)C4CC[C@]23C)C1 (stereo not given in full)
Q: CCNc1nc(Nc2cc(F)c(C(=O)N3CCOCC3)cc2OC)ncc1C(F)(F)F
For P and Q , which recorded residual activity is lower? # reply format: chosen label
Q
(Q: 74%, P: 112%)

* * *

target_of_assay: SYK (human) (UniProt P43405)
experimental_protocol: radiometric filter-binding kinase assay
measurement_setup: compound 1.0 µM
readout_kind: residual activity (%)

Use the examples below as a reference point.
>>> df
                                   compound       readout_kind  reported_measurement
0  CNc1nc(-c2ccc3c(N)n[nH]c3c2)cc(N2C[C@@H](C(=O)NC3CCCCC3)CC[C@H]2C)n1  residual activity                   104
1       O=C1NC(=S)N[C@@H]1Cc1c[nH]c2ccccc12  residual activity                    92

a: O=C(Nc1cccnc1)c1cc(-c2ccnc(F)c2)ccc1OCc1ccccc1
b: CN(C)C/C=C/C(=O)Nc1cccc(C(=O)Nc2ccc(Nc3nccc(-c4cccnc4)n3)cc2)c1
For a and b , which recorded residual activity is lower? # reply format: chosen label
b

I: COc1ccc(N(C(=O)Nc2c(C)cccc2C)c2cc(Nc3ccc(N4CCN(C)CC4)cc3)ncn2)c(OC)c1
II: CCNc1nc(Nc2cc(F)c(C(=O)N3CCOCC3)cc2OC)ncc1C(F)(F)F
For I and II , which recorded residual activity is lower? # reply format: chosen label
II

* * *

target_of_assay: UniProt:Q9HC98
Sequence (Q9HC98 whole entry, looked up): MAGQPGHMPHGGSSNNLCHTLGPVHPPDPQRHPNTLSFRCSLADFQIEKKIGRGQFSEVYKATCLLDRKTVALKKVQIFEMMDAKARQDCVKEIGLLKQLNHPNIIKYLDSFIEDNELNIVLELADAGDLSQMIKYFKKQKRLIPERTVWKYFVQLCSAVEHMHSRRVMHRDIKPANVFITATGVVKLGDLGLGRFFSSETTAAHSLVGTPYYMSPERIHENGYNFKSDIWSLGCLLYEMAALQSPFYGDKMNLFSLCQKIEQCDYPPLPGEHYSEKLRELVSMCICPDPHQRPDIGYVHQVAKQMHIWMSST
experimental_protocol: radiometric filter-binding kinase assay
measurement_setup: compound 10.0 µM
readout_kind: residual activity (%)

                                   compound  reported_measurement
0  CC(C)C[C@H](NC(=O)CNC(=O)c1cc(Cl)ccc1Cl)B1OC(=O)CC(CC(=O)O)(C(=O)O)O1 (some centres undefined)                    82

1: NS(=O)(=O)OC[C@@H]1C[C@@H](n2ccc3c(N[C@H]4CCc5ccccc54)ncnc32)C[C@@H]1O
2: CC(C)(C#N)c1ccc(N2C(=O)OCc3cnc4ccc(-c5cnc6ccccc6c5)cc4c32)cc1
3: Oc1ccc2ccccc2c1SSc1c(O)ccc2ccccc12
Order the items by recorded residual activity; the first position goes to the largest value. Your task in answering is to list the labels in the requested order.
1, 3, 2

* * *

target_of_assay: BTK (human)
experimental_protocol: radiometric filter-binding kinase assay
measurement_setup: compound 10.0 µM
readout_kind: residual activity (%)

>>> df
                                   compound  target_of_assay  reported_measurement
0  C[C@H]1CCCC(=O)CCC/C=C/c2cc(O)cc(O)c2C(=O)O1      BTK (human)                    69
1                  Cc1ccc(=O)n(-c2ccccc2)c1      BTK (human)                   115
2  O=C1Nc2nc(-c3c(O)cccc3OCC3CC3)cc(C3CCCNC3)c2CO1 (stereo not drawn)      BTK (human)                    83

* * *

target_of_assay: MKNK1 (human) (UniProt Q9BUB5)
Sequence (Q9BUB5 whole entry, looked up): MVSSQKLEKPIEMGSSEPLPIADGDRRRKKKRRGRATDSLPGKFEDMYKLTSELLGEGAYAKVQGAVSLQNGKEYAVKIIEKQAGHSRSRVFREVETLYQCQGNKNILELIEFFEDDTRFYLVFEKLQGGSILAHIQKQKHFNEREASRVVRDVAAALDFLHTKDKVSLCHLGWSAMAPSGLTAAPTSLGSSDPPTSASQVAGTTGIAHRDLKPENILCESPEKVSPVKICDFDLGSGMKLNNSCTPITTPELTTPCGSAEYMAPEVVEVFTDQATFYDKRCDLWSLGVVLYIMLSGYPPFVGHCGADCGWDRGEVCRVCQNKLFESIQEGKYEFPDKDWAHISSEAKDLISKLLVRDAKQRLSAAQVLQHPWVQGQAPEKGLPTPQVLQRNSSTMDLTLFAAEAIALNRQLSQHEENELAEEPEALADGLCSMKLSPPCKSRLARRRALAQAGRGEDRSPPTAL
experimental_protocol: radiometric filter-binding kinase assay
measurement_setup: compound 10.0 µM
readout_kind: residual activity (%)

Use the examples below as a reference point.
In [3]: df
Out[3]:
                                   molecule       readout_kind  output_unit  reported_measurement
0  NC(=O)c1cc2c(-c3cccc(-c4ccccc4)c3)cnc(N)c2s1  residual activity            %                    99
1  Cc1cc(SCc2sc(-c3ccc(C(F)(F)F)cc3)nc2C)ccc1OCC(=O)O  residual activity            %                    79
2  O=C(O)c1cc(N=Nc2ccc(S(=O)(=O)Nc3ccccn3)cc2)ccc1O  residual activity            %                    79
3  COc1cc2ncn(-c3cc(OCc4ccccc4S(C)(=O)=O)c(C#N)s3)c2cc1OC  residual activity            %                    34
4  COc1ccc2c(c1)c1c3c(c4c5ccccc5n(C)c4c1n2CC(O)CN(C)C)C(=O)NC3=O (centres undefined)  residual activity            %                    62

a: Cc1ccc(Sc2cnc(Nc3cccc(Br)n3)s2)cc1C(=O)N1CCN(C(=O)CN)CC1
b: Nc1cccc2c1CN(C1CCC(=O)NC1=O)C2=O (centres undefined)
c: O=c1c(O)c(-c2ccc(O)c(O)c2)oc2cc(O)c(O)c(O)c12
d: CCNc1nc(Nc2cc(F)c(C(=O)N3CCOCC3)cc2OC)ncc1C(F)(F)F
e: NC(=O)c1cc(-c2ccnc(NC3CCCCC3)c2)nc(N2CCNCC2)c1
Order the items by recorded residual activity; the first position goes to the largest value. Your task in answering is to list the labels in the requested order.
b, a, d, c, e
(b: 111%, a: 77%, d: 45%, c: 12%, e: 7%)

* * *

target_of_assay: MAPK10 (human) (UniProt P53779)
Sequence (P53779 whole entry, looked up): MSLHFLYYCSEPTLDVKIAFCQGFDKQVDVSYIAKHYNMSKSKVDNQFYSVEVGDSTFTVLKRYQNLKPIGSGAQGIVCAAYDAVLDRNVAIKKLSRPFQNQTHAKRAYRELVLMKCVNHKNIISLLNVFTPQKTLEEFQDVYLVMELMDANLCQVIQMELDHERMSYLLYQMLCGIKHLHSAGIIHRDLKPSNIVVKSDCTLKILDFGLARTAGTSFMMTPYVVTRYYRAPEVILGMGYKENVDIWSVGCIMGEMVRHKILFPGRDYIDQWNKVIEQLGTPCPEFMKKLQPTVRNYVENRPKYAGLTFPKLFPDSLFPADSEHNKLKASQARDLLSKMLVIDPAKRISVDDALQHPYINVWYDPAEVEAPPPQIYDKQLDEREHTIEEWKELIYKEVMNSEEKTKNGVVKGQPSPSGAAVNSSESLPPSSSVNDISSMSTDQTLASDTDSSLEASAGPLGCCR
experimental_protocol: radiometric filter-binding kinase assay
measurement_setup: compound 1.0 µM
readout_kind: residual activity (%)

In [3]: df
Out[3]:
                                   molecule  reported_measurement
0  NC(=O)c1cc(-c2ccnc(NC3CCCCC3)c2)nc(N2CCNCC2)c1                    79

I: Oc1ccc2ccccc2c1SSc1c(O)ccc2ccccc12
II: COc1ccc(N(C(=O)Nc2c(C)cccc2C)c2cc(Nc3ccc(N4CCN(C)CC4)cc3)ncn2)c(OC)c1
In the pair I and II , the larger recorded residual activity belongs to which? # reply format: chosen label
I
(I: 106%, II: 38%)
